Cited source for all entries: PubChem BioAssay

Each entry below lists one item and its recorded viability value.
test-name: Her2 expression decrease, cell viability multiplex – SKBR3 breast tumor cells, AlphaScreen, ATP viability, primary screen (AID 461);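 note: percent of carrier control wells set as 100% viability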
condition-parameters: SKBR3 Her2 protein level, 18-24 h, measured here: SKBR3 viability, ATP luminescence, at 10 µM
Numeric only. Scale: %

Solved entries (count: 5):
Cc1ccc(-n2nc(C)c3cc(C(=O)O)sc32)cc1 = 97
Cc1nc2ccc(C(=O)c3ccccc3)cc2[nH]1 = 102
COC(=O)C1=C(C)Nc2ncnn2C1c1ccc(C)o1 (configuration not stated) = 103
COc1ccc(-n2nnnc2SCC(=O)N2CCOCC2)cc1 = 93
CCOc1ccc(Cn2nnc(C(=O)Nc3ccc(OC)cc3OC)c2N)cc1 = 96.5

Inquiry: Return value of viability for input `O=C(c1cc(C2CC2)on1)N1CCN(C(c2ccccc2)c2ccccc2)CC1` , no commentary.
Reply text: 84.5

Inquiry: Dear colleague, please send me the reported viability for `Cn1c(SCC(=O)c2cc3ccccc3o2)nnc1-c1ccccc1` when you can.
Reply text: 96.5

Inquiry: Query viability for `CCCCN(CC)CCCNC(=O)c1cc2c(=O)n(C)c3ccccc3c2n1C`
Reply text: 76

Inquiry: Supply reported viability belonging to this compound: `CCN1CCN(Cc2nc3c(c(=O)n(C)c(=O)n3C)n2CC(=O)c2ccccc2)CC1`
Reply text: 100

Inquiry: State its viability for this compound: `CCOC(=O)c1sc2nc(NC(=O)C(C)(C)C)sc2c1C`
Reply text: 104

Inquiry: Item `O=C(Nc1ccc(CN2CCOCC2)cc1)c1cc2ccccn2n1` : provide viability
Reply text: 100

Inquiry: Return viability (reported value) for this compound: `O=C(C1CCN(c2nnc(-n3cccc3)s2)CC1)N1CCc2ccccc2C1`
Reply text: 88

Inquiry: Hello, please tell me recorded viability for this one: `CCc1cc2c(=O)c(-c3nc4ccccc4[nH]3)coc2c(CN2CCC(C)CC2)c1O`
Reply text: 96

Inquiry: Hello, please tell me recorded viability for this one: `COc1ccc(NC(=O)CN(c2ccc(C(C)C)cc2)S(=O)(=O)c2c(C)noc2C)cc1OC`
Reply text: 90.5

Inquiry: State, in one line, measured viability of `COc1ccc(N(CC(=O)Nc2ccc3c(c2)OCCO3)S(=O)(=O)c2cccnc2)cc1`
Reply text: 91

###

test-name: yeast transport mutant growth inhibition pilot in 384-well plates, post-Golgi transport modulator project (AID 636)
condition-parameters: absorbance 615 nm, about 18 h, stronger effect = higher value
Recorded inhibition values for a group of molecules are listed next.
Provide the reading as a plain figure in %.

// known answers, use as guide
CC1CCN(S(=O)(=O)c2cccc(C(=O)Nc3ccccn3)c2)CC1 = 4.1
C=C(Cl)COc1ccc2c(C)cc(=O)oc2c1 = 1.89
CCSc1nc(O)c(CC)c(=O)n1C(C)CC (stereo unspecified) = -6
COc1ccccc1S(=O)(=O)Cc1ccc(C(=O)NCCN2CCCCCC2)o1 = -0.9
CCCc1cc(C(=O)Nc2sc3c(c2C#N)CCC3)no1 = -2.05

Turning to the following molecule.
Inquiry: Give reported inhibition value for `CCOC(=O)N1CCC(NC(=O)c2ccc3c(c2)N(CC)CCS3)CC1`
Reply text: -6.93

###

test-name: S. cerevisiae growth inhibition in permissive medium (OD615), pilot counter-assay for S. cerevisiae lifespan shortening project, permissive growth control (AID 705)
condition-parameters: OD615, 24 h, at 10 µM, stronger effect = higher value
List of growth inhibition values.
Express the result in % but write the number alone.

Inquiry: Give growth inhibition for `Cc1cc(=O)oc2c1ccc1oc(/C(=N/O)c3ccccc3)c(C)c12`
Reply text: -11
